Sourced from the supplement of paper PMC8612539

List of minimum inhibitory concentration values.
# Test system: Histophilus somni
# PROCEDURE SUMMARY: minimum inhibitory concentration (MIC)
# TEST PARAMETERS: isolate (source animal id): 15
API: value field is a number in µg/mL; no unit string.

Query: Report minimum inhibitory concentration, nothing else, for this molecule: CN(C)[C@@H]1C(O)=C(C(N)=O)C(=O)[C@@]2(O)C(O)=C3C(=O)c4c(O)cccc4[C@@](C)(O)[C@H]3C[C@@H]12 [Tetracycline]
Reply: 4

Now take the following molecule into account.
Query: For the molecule CC[C@H]1OC(=O)C[C@@H](O)[C@H](C)[C@@H](O[C@@H]2O[C@H](C)[C@@H](O)[C@H](N(C)C)[C@H]2O)[C@@H](CCN2C[C@H](C)C[C@H](C)C2)C[C@@H](C)C(=O)/C=C/C(C)=C/[C@@H]1CO[C@@H]1O[C@H](C)[C@@H](O)[C@@H](OC)[C@H]1OC [Tilmicosin] , give its reported minimum inhibitory concentration.
Reply: 8
